- test.details: Stability in pH 7.4 PBS buffer at 0.5 mmol after 5 mins in presence of cysteine by HPLC analysis
- Assay type: physicochemical
- experimental.conditions: PBS buffer with cysteine, read-out: Stability
measurement.name: remaining at 5 min, 0.5 mmol (%)
API: value field is a number in %; no unit string.

O=c1sn(-c2ccccc2)c(=O)n1-c1ccccc1 yielded remaining at 5 min, 0.5 mmol of 82

====

- test.details: Drug metabolism in PBS buffer assessed as H2S release by measuring time required for 50% of maximum H2S release at steady state at 1 mM after 30 mins in presence of 4 mM L-cysteine by amperometric method
- Type: physicochemical
- experimental.conditions: 0.5 h, 1000 µM
Measured Time by item

Field: example entries. Status: answers known.
[
  {
    "input.smiles": "COc1ccc(-n2sc(=O)n(-c3ccc(C)cc3)c2=O)cc1",
    "Time": "13.25 min"
  },
  {
    "input.smiles": "O=c1sn(-c2ccccc2)c(=O)n1-c1ccccc1",
    "Time": "12.01 min"
  },
  {
    "input.smiles": "COc1ccc(-n2sc(=O)n(-c3ccc(Cl)cc3)c2=O)cc1",
    "Time": "15.36 min"
  },
  {
    "input.smiles": "COc1ccc(-n2sc(=O)n(C3CCCCC3)c2=O)cc1",
    "Time": "13.93 min"
  },
  {
    "input.smiles": "COc1ccc(-n2sc(=O)n(-c3ccccc3)c2=O)cc1",
    "Time": "13.25 min"
  }
]

Reported Time for COc1ccc(-n2sc(=O)n(Cc3ccccc3)c2=O)cc1 was 15.75 min

The reported Time of the compound Cc1ccc(-n2sc(=O)n(-c3ccccc3)c2=O)cc1 was 13.84 min
